assay: chemical genetic growth profiling, strain panel (AID 1159580);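 further: tested at 20 µM; growth read once vehicle control cultures reached saturation at 30 °C; lower values mean less growth of the strain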; settings: S. cerevisiae deletion strains, growth OD, locus YNL006W, strain LST8
About 2,000 (36%) of roughly 5,500 compounds were called active. Roughly 18% stayed inconclusive and do not appear here. No stated cut-off is given here; in the data, active means normalized growth mostly below about 0.91 (no sharp cut-off); inconclusive means no clear call, values can overlap the other calls; inactive means mostly above about 0.92. This is one part of the list.
One label from this list, please: active, inactive

Please state the recorded outcome for this compound: `O=C(c1ccc(Cl)cc1)N(Cc1ccccc1)Cc1cccnc1`
inactive

Look up the recorded call for `O=C(c1cccs1)N(Cc1cccnc1)Cc1ccc(Cl)cc1Cl` in this test.
inactive

Field: outcome | Entry: `C=CCc1c(CCC)nc(-c2ccccn2)[nH]c1=O`
inactive

Look up the recorded call for `Fc1cccc(Cl)c1CSc1n[nH]c(-c2cc(C(F)(F)F)cc(C(F)(F)F)c2)n1` in this test.
inactive

Test call for this compound, please: `Cc1csc(NC(=O)Nc2ccc(C(F)(F)F)cc2)c1`
inactive

I would be grateful if you could indicate the recorded call for `Nc1ccc(Sc2ccccc2)nc1Sc1ccccc1` .
inactive

Look up the recorded call for `Fc1ccc(NC(=S)N2CCCN(Cc3ccc(Cl)cc3Cl)CC2)cc1` in this test.
inactive

Outcome? `COc1ccc2nc3ccccc3c(N)c2c1`
active

I would be grateful if you could indicate the recorded call for `Cc1csc(NC(=O)Nc2ccc(C(F)(F)F)cc2)c1Cl` .
inactive

Please indicate how the test categorized `CCCc1nc(-c2ccccn2)[nH]c(=O)c1CC1CC1` .
inactive

Please let me know the test result on file for `Cc1oc(C(C)(C)C)cc1-c1cc(N)n(-c2ccc(I)cc2)n1` .
inactive

The values you see were collected from PubChem BioAssay AID1159580.
